// IC50 lookup, one value per entry
- SYSTEM NAME: NS3/NS4 complexes (Hepatitis C virus genotype 1a)
- Sequence (P27958 1027-1657): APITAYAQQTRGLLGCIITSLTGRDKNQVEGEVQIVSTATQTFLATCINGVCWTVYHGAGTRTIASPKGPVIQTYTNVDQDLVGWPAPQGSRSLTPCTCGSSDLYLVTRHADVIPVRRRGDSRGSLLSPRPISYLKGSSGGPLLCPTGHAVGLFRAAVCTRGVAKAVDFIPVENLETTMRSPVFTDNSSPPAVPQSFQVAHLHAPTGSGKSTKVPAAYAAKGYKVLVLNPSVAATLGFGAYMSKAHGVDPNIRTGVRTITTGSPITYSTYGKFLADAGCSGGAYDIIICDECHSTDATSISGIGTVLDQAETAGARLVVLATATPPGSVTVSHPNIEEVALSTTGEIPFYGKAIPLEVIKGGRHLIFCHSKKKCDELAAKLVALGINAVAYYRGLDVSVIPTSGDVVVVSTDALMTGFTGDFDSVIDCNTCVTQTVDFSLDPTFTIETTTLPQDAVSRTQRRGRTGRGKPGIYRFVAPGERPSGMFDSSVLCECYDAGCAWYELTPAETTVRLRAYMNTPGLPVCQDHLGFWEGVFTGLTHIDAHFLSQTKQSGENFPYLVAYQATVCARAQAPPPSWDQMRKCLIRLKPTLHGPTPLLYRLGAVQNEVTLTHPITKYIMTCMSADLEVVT
- Sequence (P27958 1658-1711): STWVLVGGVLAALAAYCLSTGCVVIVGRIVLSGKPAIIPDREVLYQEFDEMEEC
- PROCEDURE DETAILS: NS3/NS4 inhibition activity (IC50)
- Format: biochemical
- CONDITION SET: Table 3, read-out: IC50

| COMPOUND | VALUE KIND | RESULT |
| --- | --- | --- |
| CN(C)S(=O)(=O)NC(=O)[C@@]12C[C@H]1/C=C\CCCCC[C@H](NC(=O)OC(C)(C)C)C(=O)N1C[C@H](Oc3nc4ccccc4[nH]3)C[C@H]1C(=O)N2 [Compound 1144] | IC50 | < 10 nM |
| CC(=O)O[C@@H]1C[C@H]2C(=O)N[C@]3(C(=O)NCCC(=O)NCc4ccccc4)C[C@H]3/C=C\CCCCC[C@H](NC(=O)OC(C)(C)C)C(=O)N2C1 [Compound 1059] | IC50 | > 100 nM |
| CC(C)(C)OC(=O)N[C@H]1CCCCC/C=C\[C@@H]2C[C@@]2(C(=O)NS(=O)(=O)c2ccccc2OCC(N)=O)NC(=O)[C@@H]2C[C@@H](OC(=O)N3Cc4cccc(F)c4C3)CN2C1=O [Compound 1083] | IC50 | < 10 nM |
| CC1(S(=O)(=O)NC(=O)[C@@]23C[C@H]2/C=C\CCCCC[C@H](Nc2cccc(C#N)c2)C(=O)N2C[C@H](OC(=O)N4Cc5cccc(F)c5C4)C[C@H]2C(=O)N3)CC1 [Compound 1113] | IC50 | < 10 nM |

For CC1(S(=O)(=O)NC(=O)[C@@]23C[C@H]2/C=C\CCCCC[C@H](Nc2ccccc2)C(=O)N2C[C@H](OC(=O)N4Cc5cccc(F)c5C4)C[C@H]2C(=O)N3)CC1 [Compound 1102] the compound record lists IC50 as < 10 nM

These entries and their values trace back to patent US8048862B2.
